Give measured pIC50 for each item. Keep answers brief.
Biological target: UniProt P08922
Sequence (P08922 whole entry, the tested form may be a part): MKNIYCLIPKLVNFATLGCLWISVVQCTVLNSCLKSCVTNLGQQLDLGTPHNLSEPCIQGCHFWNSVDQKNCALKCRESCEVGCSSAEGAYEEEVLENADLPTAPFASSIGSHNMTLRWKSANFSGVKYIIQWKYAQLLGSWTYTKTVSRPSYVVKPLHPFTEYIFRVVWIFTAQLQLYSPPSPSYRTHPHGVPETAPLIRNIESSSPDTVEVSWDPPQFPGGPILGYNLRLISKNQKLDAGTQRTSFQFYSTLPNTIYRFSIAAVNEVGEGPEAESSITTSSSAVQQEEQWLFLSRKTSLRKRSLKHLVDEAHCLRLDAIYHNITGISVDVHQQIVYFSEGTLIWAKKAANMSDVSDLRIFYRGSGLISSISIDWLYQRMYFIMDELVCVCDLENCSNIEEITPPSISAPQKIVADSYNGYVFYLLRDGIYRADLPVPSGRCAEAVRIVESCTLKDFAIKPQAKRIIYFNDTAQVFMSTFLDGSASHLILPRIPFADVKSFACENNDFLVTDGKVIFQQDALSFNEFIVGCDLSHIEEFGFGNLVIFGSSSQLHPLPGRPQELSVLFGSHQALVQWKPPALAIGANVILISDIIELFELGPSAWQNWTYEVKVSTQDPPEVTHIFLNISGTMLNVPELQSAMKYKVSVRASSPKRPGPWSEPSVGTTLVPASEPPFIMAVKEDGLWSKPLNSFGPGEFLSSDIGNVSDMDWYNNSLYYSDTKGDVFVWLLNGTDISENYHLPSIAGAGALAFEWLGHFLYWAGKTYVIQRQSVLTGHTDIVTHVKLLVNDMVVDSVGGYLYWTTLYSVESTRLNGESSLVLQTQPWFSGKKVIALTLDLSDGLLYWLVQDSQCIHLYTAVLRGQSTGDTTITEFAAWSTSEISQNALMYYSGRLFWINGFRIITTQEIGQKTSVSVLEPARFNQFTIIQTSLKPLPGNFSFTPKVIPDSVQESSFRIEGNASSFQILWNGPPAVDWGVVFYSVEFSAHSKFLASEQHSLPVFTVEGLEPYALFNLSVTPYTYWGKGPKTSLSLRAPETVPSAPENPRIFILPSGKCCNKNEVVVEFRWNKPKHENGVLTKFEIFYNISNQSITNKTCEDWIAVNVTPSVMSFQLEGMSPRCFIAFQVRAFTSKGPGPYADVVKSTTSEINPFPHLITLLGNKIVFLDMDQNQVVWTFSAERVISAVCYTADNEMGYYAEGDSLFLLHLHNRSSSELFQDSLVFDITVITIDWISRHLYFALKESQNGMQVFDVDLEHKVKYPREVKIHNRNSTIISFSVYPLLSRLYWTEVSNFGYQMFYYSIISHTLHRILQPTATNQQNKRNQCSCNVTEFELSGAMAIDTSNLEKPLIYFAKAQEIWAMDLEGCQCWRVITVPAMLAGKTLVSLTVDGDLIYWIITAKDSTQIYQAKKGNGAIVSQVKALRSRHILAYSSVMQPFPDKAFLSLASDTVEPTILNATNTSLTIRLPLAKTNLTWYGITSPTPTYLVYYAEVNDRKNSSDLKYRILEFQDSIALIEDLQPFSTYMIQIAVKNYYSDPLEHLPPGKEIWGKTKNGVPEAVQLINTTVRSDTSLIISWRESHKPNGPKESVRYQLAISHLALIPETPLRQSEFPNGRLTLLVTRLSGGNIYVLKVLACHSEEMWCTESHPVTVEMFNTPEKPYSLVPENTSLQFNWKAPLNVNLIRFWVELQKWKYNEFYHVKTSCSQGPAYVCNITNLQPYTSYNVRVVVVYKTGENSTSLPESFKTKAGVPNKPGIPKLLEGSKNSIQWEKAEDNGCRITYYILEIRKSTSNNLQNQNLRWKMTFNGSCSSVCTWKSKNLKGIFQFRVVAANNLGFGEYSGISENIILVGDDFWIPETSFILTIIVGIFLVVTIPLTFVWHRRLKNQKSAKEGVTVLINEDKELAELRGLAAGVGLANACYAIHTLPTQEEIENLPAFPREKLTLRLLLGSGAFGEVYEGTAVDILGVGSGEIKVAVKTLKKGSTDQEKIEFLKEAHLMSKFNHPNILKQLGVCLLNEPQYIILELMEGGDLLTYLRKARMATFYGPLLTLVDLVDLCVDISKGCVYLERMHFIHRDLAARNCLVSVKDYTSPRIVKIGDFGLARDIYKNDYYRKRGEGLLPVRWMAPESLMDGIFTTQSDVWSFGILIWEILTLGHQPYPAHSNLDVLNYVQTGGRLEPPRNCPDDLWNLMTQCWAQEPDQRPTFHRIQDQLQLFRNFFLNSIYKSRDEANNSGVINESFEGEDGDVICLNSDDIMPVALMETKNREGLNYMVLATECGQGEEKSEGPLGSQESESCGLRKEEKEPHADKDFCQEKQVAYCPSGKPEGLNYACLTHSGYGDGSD
Assay: Inhibition of recombinant human N-terminal GST-tagged ROS1 (1883 to 2347 residues) expressed in baculovirus expression system using IRS1 as substrate incubated for 1 hr by mobility shift assay
Remember the convention: pIC50 equals -log10 of concentration in molar.

Reported pIC50, compound COc1cc(OCC2CCCO2)ccc1Nc1ncc(Cl)c(Nc2ccccc2NS(C)(=O)=O)n1 (centres undefined) : ____
8.43

Param item: COc1cc(NCC2CCCO2)ccc1Nc1ncc(Cl)c(Nc2ccccc2NS(C)(=O)=O)n1 (centres undefined)
8.34

Param item: `COc1cc(SCc2ccc(CN3CCCC3)o2)ccc1Nc1ncc(Cl)c(Nc2ccccc2NS(C)(=O)=O)n1`
8.38

Param item: `COc1cc(SCc2ccc(CN(C)C)o2)ccc1Nc1ncc(Cl)c(Nc2ccccc2NS(C)(=O)=O)n1`
8.64
